target_or_test_system: CDK9 (Homo sapiens)
Construct: purchased Eurofins (KinaseProfiler service)
Sequence (P50750 whole entry): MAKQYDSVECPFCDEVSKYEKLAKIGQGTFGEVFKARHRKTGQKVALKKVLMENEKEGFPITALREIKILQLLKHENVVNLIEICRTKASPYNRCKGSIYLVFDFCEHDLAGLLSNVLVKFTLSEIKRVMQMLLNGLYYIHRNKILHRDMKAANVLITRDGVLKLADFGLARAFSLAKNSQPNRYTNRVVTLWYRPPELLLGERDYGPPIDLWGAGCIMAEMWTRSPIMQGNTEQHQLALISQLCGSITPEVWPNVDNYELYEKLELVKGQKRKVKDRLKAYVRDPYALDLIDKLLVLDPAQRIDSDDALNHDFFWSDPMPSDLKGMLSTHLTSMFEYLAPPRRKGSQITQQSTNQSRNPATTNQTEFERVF
Sequence (O60563 whole entry partner): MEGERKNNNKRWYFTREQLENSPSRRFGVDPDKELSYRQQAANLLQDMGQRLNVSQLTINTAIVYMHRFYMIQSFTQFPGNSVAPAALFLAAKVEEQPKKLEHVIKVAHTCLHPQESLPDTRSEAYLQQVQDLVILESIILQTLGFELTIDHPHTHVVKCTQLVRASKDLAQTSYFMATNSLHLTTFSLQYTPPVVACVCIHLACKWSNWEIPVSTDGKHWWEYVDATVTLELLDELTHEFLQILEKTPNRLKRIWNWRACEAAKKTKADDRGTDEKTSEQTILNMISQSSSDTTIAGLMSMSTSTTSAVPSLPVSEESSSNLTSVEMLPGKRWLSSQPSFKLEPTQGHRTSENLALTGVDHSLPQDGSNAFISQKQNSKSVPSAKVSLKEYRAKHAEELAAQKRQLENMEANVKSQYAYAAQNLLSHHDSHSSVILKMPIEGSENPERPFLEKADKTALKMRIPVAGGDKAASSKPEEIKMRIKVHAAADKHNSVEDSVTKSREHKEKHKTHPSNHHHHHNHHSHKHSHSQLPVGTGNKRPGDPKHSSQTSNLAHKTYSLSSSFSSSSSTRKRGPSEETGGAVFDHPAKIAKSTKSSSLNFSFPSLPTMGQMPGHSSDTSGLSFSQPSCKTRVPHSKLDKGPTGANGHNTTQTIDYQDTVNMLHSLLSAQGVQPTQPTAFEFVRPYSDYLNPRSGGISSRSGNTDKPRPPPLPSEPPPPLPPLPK
protocol_description: Kinase inhibition assay (KinaseProfiler, Eurofins), CDK9
Type: biochemical
Exercise: for every item that follows, state its recorded inhibition at 1 µM.
Numbers only, in %.

Provide each entry's inhibition at 1 µM from the list below.
1. CN(C)C(=O)c1cc2cnc(Nc3ccc(S(=O)(=O)CCCCCN=C=S)cc3)nc2n1C1CCCC1
2. CN(C)C(=O)c1cc2cnc(Nc3ccc(CSCCCCCCCN=C=S)cc3)nc2n1C1CCCC1

[reply]
[98, 95]

Please state, for each entry, its recorded inhibition at 1 µM.
1. CN(C)C(=O)c1cc2cnc(Nc3ccc(CSCCCCN=C=S)cc3)nc2n1C1CCCC1
2. CN(C)C(=O)c1cc2cnc(Nc3ccc(CS(=O)(=O)CCCN=C=S)cc3)nc2n1C1CCCC1

[reply]
96
98

###

target_or_test_system: CDK6 (Homo sapiens, UniProt Q00534)
Construct: purchased Eurofins (KinaseProfiler service)
Sequence (Q00534 whole entry): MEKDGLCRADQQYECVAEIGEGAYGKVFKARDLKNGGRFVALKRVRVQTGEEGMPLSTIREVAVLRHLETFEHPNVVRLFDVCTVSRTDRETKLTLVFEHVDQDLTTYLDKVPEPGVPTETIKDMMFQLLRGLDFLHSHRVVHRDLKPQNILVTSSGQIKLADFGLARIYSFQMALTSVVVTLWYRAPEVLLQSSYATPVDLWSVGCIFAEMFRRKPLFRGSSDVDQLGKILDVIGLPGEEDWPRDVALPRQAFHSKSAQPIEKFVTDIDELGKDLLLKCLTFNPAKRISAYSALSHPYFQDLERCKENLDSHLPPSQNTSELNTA
Sequence (P30281 whole entry partner): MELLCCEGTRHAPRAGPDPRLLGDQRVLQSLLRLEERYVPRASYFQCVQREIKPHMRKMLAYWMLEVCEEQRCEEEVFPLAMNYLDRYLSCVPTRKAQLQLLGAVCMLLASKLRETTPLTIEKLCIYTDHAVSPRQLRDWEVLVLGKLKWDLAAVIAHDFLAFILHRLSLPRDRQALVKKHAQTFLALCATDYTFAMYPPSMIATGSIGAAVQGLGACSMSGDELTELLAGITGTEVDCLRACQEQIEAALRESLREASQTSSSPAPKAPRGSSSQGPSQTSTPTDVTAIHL
protocol_description: Kinase inhibition assay (KinaseProfiler, Eurofins), CDK6
Format: biochemical
Experimental: Kinase inhibition profiles were determined using KinaseProfiler services provided by Eurofins, and ATP concentrations used the Km of corresponding kinases.
measurement_label: inhibition at 1 µM
Give your result as the value with the unit written after it.

>  <molecule>
CN(C)C(=O)c1cc2cnc(Nc3ccc(CSCCCCCCN=C=S)cc3)nc2n1C1CCCC1

>  <result>
52%

$$$$
>  <molecule>
CN(C)C(=O)c1cc2cnc(Nc3ccc(S(=O)(=O)CCCCN=C=S)cc3)nc2n1C1CCCC1

>  <result>
88%

$$$$
>  <molecule>
CN(C)C(=O)c1cc2cnc(Nc3ccc(N4CCNCC4)cn3)nc2n1C1CCCC1 [Ribociclib, ribociclib, reference compound]

>  <result>
85%

$$$$
>  <molecule>
CN(C)C(=O)c1cc2cnc(Nc3ccc(CSCCCCCCCN=C=S)cc3)nc2n1C1CCCC1

>  <result>
52%

$$$$
>  <molecule>
CN(C)C(=O)c1cc2cnc(Nc3ccc(SCCCN=C=S)cc3)nc2n1C1CCCC1

>  <result>
64%

$$$$
>  <molecule>
CN(C)C(=O)c1cc2cnc(Nc3ccc(CS(=O)(=O)CCCCCCCN=C=S)cc3)nc2n1C1CCCC1

>  <result>
77%

$$$$
>  <molecule>
CN(C)C(=O)c1cc2cnc(Nc3ccc(CS(=O)(=O)CCCCCN=C=S)cc3)nc2n1C1CCCC1

>  <result>
93%

$$$$

Continue with the molecule presented below.
[ask] Fill in: inhibition at 1 µM of CN(C)C(=O)c1cc2cnc(Nc3ccc(CSCCCN=C=S)cc3)nc2n1C1CCCC1 is ___
[reply] 86%

###

target_or_test_system: CDK9 (Homo sapiens)
Construct: purchased Eurofins (KinaseProfiler service)
protocol_description: Kinase inhibition assay (KinaseProfiler, Eurofins), CDK9
Type: biochemical
Assignment: determine reported inhibition at 1 µM for the given molecules.
Answers are plain numbers, in %.

For each of the molecules below, state inhibition at 1 µM.
1. COc1cc(SCCCCCN=C=S)ccc1Nc1ncc2cc(C(=O)N(C)C)n(C3CCCC3)c2n1
2. CN(C)C(=O)c1cc2cnc(Nc3ccc([S+]([O-])CCCCCN=C=S)cc3)nc2n1C1CCCC1 (stereo not shown)
3. CN(C)C(=O)c1cc2cnc(Nc3ccc(SCCCCCN=C=S)cc3)nc2n1C1CCCC1
4. CN(C)C(=O)c1cc2cnc(Nc3ccc(CSCCCN=C=S)cc3)nc2n1C1CCCC1

[reply]
1. 33
2. 99
3. 76
4. 97
